Data credit: patent US8435978B2

# test.target: human B1R receptor (Homo sapiens)
# Construct: host or cells: CHO K1 cells (Chinese hamster ovary), stably transfected
# Sequence (P46663 whole entry): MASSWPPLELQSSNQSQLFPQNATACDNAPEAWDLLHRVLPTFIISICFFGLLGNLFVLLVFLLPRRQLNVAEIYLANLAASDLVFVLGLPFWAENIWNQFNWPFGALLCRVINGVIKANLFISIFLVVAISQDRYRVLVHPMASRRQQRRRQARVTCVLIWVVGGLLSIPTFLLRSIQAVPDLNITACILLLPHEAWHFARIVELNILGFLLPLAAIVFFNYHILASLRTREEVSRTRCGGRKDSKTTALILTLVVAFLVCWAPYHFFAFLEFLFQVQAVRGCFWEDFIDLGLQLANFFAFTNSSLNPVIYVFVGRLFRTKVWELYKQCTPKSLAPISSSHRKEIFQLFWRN
# assay.method.text: Functional study on the bradykinin receptor 1 (B1R), FLIPR Ca2+ assay, hB1R cells
# Format: cell-based
# reported.conditions: CHO-K1, test substance 10 μM, agonist Lys-Des-Arg9-bradykinin 0.5 nM, % inhibition compared with the maximum achievable inhibition, read-out: B1R Antagonism, human [10 μM] % Inhibition
Binary call on inhibition at 10 µM: Met from 80% upward, Not met beneath that.

# molecule, test.target, assigned.category
rows = [
    ("COc1cc(C)c(S(=O)(=O)N2CCCCC2COCC(=O)NCCN(C)C)c(C)c1 (centres unmarked)", "human B1R receptor (Homo sapiens)", "Not met"),
]

Identify whether the reported inhibition at 10 µM of the following molecule is 80% or greater: COc1cc(C)c(S(=O)(=O)N2CCCC2COCC(=O)N2CCC(N3CCN(C)CC3)CC2)c(C)c1 (centres unmarked)
Met

Quick check: does COc1cc(C)c(S(=O)(=O)N2CCCCC2COCC(=O)Nc2nc3ccccc3n2C)c(C)c1 (centres unmarked) have inhibition at 10 µM greater than or equal to 80%?
Not met

Quick check, inhibition at 10 µM >= 80%? CCN(CC)CCN(CC)C(=O)COCC1CCCCN1S(=O)(=O)c1c(C)cc(OC)cc1C (centres unmarked)
Met

Decide: inhibition at 10 µM of COc1cc(C)c(S(=O)(=O)N2CCCCC2COCC(=O)Nc2cc(C)nc3ccccc23)c(C)c1 (centres unmarked) >= 80%?
Not met

inhibition at 10 µM >= 80% for COc1cc(C)c(S(=O)(=O)N2CCCCC2COCC(=O)NCc2ccccc2Oc2cnccn2)c(C)c1 (centres unmarked) ?
Not met
